- Measurement Protocol: The drug is tested on WLS-039 corresponding to human gut metagenome with ENA study accession number: PRJEB37062 and ENA sample accession number: ERS12561746 for biotransformation under anaerobic condition. The drug concentrations were measured over 9 timepoints collected between 0 and 24 hours of incubation by liquid-chromatography-coupled mass spectrometry (LC–MS); note: call rule not given here
- Condition Details: 2 µM

Compound	Bacterial Biotransformation
COc1cc2nc(N(C)CCCNC(=O)C3CCCO3)nc(N)c2cc1OC (stereo not drawn) [ALFUZOSIN]	Compound NOT metabolized
CCCc1nc2c(C)cc(-c3nc4ccccc4n3C)cc2n1Cc1ccc(-c2ccccc2C(=O)O)cc1	Compound metabolized
CCc1nn(CCCN2CCN(c3cccc(Cl)c3)CC2)c(=O)n1CCOc1ccccc1 [NEFAZODONE]	Compound metabolized
CCC(COC(=O)c1cc(OC)c(OC)c(OC)c1)(c1ccccc1)N(C)C.O=C(O)/C=C\C(=O)O (stereo not drawn)	Compound NOT metabolized
CNS(=O)(=O)Cc1ccc2[nH]cc(CCN(C)C)c2c1.O=C(O)CCC(=O)O [SUMATRIPTAN SUCCINATE]	Compound NOT metabolized
CN(C(=O)CN(CCO)CC(=O)N(C)C(C)(C)Cc1ccccc1)C(C)(C)Cc1ccccc1 [OXETHAZAINE]	Compound metabolized
CCCc1nn(C)c2c(=O)[nH]c(-c3cc(S(=O)(=O)N4CCN(C)CC4)ccc3OCC)nc12.O=C(O)CC(O)(CC(=O)O)C(=O)O [SILDENAFIL CITRATE]	Compound NOT metabolized
CCC(=O)NCC[C@@H]1CCc2ccc3c(c21)CCO3 [RAMELTEON]	Compound metabolized
COc1ccc2[nH]c([S+]([O-])Cc3ncc(C)c(OC)c3C)nc2n1 (stereo not drawn) [TENATOPRAZOLE]	Compound metabolized
CO[C@]12C[C@@H](COC(=O)c3cncc(Br)c3)CN(C)[C@@H]1Cc1cn(C)c3cccc2c13 [NICERGOLINE]	Compound metabolized
Cc1ccc(S(=O)(=O)NC(=O)NN2CC3CCCC3C2)cc1 (stereo not drawn) [GLICLAZIDE]	Compound metabolized
O=C1NCC2(CCN(CCc3ccccc3)CC2)O1 [FENSPIRIDE]	Compound NOT metabolized
O=C(CCCN1CCC(O)(c2ccc(Cl)cc2)CC1)c1ccc(F)cc1 [HALOPERIDOL]	Compound metabolized
CC(Oc1c(Cl)cccc1Cl)C1=NCCN1 (stereo not drawn) [LOFEXIDINE]	Compound NOT metabolized
CCN(CC)CCNC(C(=O)OCCC(C)C)c1ccccc1.Cl.Cl (stereo not drawn)	Compound NOT metabolized
Cc1ccc(S(=O)(=O)NC(=O)NN2CCCCCC2)cc1 [TOLAZAMIDE]	Compound metabolized
CN(C)CCc1c[nH]c2ccc(Cn3cncn3)cc12.O=C(O)c1ccccc1 [RIZATRIPTAN BENZOATE]	Compound NOT metabolized
C[C@@H]1CC[C@H]2[C@@H](C)C(=O)O[C@@H]3O[C@@]4(C)CC[C@@H]1[C@]32OO4 [ARTEMISININ]	Compound metabolized

---

- Measurement Protocol: The drug is tested on Z-025 corresponding to rabbit gut metagenome with ENA study accession number: PRJEB37062 and ENA sample accession number: ERS12561824 for biotransformation under anaerobic condition. The drug concentrations were measured over 9 timepoints collected between 0 and 24 hours of incubation by liquid-chromatography-coupled mass spectrometry (LC–MS)
- Condition Details: 2 µM

Molecule	Bacterial Biotransformation
COc1ccc2c3c1O[C@H]1C[C@@H](O)C=C[C@@]31CCN(C)C2	Compound NOT metabolized
CC(C)NCC(O)COc1ccc(COCCOC(C)C)cc1.CC(C)NCC(O)COc1ccc(COCCOC(C)C)cc1.O=C(O)/C=C/C(=O)O (configuration not stated) [BISOPROLOL FUMARATE]	Compound metabolized
CC(C)(Oc1ccc(CCNC(=O)c2ccc(Cl)cc2)cc1)C(=O)O [BEZAFIBRATE]	Compound NOT metabolized
CCN(CC)CCNC(=O)c1cc(Cl)c(N)cc1OC [METOCLOPRAMIDE]	Compound NOT metabolized
CCCC1O[C@@H]2C[C@H]3[C@@H]4CCC5=CC(=O)C=C[C@]5(C)[C@H]4[C@@H](O)C[C@]3(C)[C@]2(C(=O)CO)O1 (some centres not stated) [BUDESONIDE]	Compound NOT metabolized
CN1CCC(=C2c3ccccc3CCc3cccnc32)CC1.O=C(O)/C=C\C(=O)O.O=C(O)/C=C\C(=O)O [AZATADINE MALEATE]	Compound NOT metabolized
NS(=O)(=O)c1cc2c(cc1Cl)N=C(CSCc1ccccc1)NS2(=O)=O [BENZTHIAZIDE]	Compound metabolized

---

- Condition Details: human gut metagenome, 24 h, 2 µM
Property Measured: Bacterial Biotransformation

Compound	Property Measured	Measured
CN1C(=O)CC(C)(c2ccccc2)C1=O (stereo unspecified) [METHSUXIMIDE]	Bacterial Biotransformation	Compound NOT metabolized
CNS(=O)(=O)Cc1ccc2[nH]cc(CCN(C)C)c2c1.O=C(O)CCC(=O)O [SUMATRIPTAN SUCCINATE]	Bacterial Biotransformation	Compound NOT metabolized
CN1CCN(C2=Nc3cc(Cl)ccc3Nc3ccccc32)CC1 [CLOZAPINE]	Bacterial Biotransformation	Compound NOT metabolized
CC(=O)OCC(=O)[C@@]12N=C(C)O[C@@H]1C[C@H]1[C@@H]3CCC4=CC(=O)C=C[C@]4(C)[C@H]3[C@@H](O)C[C@@]12C [DEFLAZACORT]	Bacterial Biotransformation	Compound metabolized
O=C(O)CCc1nc(-c2ccccc2)c(-c2ccccc2)o1 [OXAPROZIN]	Bacterial Biotransformation	Compound metabolized
CNC(=C[N+](=O)[O-])NCCSCc1csc(CN(C)C)n1 [NIZATIDINE]	Bacterial Biotransformation	Compound NOT metabolized
CCOc1ccc(NC(C)=O)cc1 [PHENACETIN]	Bacterial Biotransformation	Compound NOT metabolized
CCCc1nc2c(C)cc(-c3nc4ccccc4n3C)cc2n1Cc1ccc(-c2ccccc2C(=O)O)cc1	Bacterial Biotransformation	Compound metabolized
CC(C)OC(=O)C(C)(C)Oc1ccc(C(=O)c2ccc(Cl)cc2)cc1 [FENOFIBRATE]	Bacterial Biotransformation	Compound NOT metabolized
COCCc1ccc(OCC(O)CNC(C)C)cc1.COCCc1ccc(OCC(O)CNC(C)C)cc1.O=C(O)C(O)C(O)C(=O)O (stereo unspecified) [METOPROLOL TARTRATE]	Bacterial Biotransformation	Compound NOT metabolized
CCCc1nc(C(C)(C)O)c(C(=O)OCc2oc(=O)oc2C)n1Cc1ccc(-c2ccccc2-c2nnn[nH]2)cc1 [OLMESARTAN MEDOXOMIL]	Bacterial Biotransformation	Compound NOT metabolized
OC(CCN1CCCCC1)(c1ccccc1)C1CC2C=CC1C2 (stereo unspecified) [BIPERIDEN]	Bacterial Biotransformation	Compound NOT metabolized
COc1cc2c(c(OC)c1OC)-c1ccc(OC)c(=O)cc1[C@@H](NC(C)=O)CC2 [COLCHICINE]	Bacterial Biotransformation	Compound metabolized
O=C1NCC2(CCN(CCc3ccccc3)CC2)O1 [FENSPIRIDE]	Bacterial Biotransformation	Compound NOT metabolized
COc1ccccc1OCC(O)CN1CCN(CC(=O)Nc2c(C)cccc2C)CC1 (stereo unspecified) [RANOLAZINE]	Bacterial Biotransformation	Compound NOT metabolized
CN1C(C(=O)Nc2ccccn2)=C(O)c2sccc2S1(=O)=O [TENOXICAM]	Bacterial Biotransformation	Compound NOT metabolized
O=C(NCc1ccccc1)OCCO [BURAMATE]	Bacterial Biotransformation	Compound NOT metabolized
CCC(COC(=O)c1cc(OC)c(OC)c(OC)c1)(c1ccccc1)N(C)C.O=C(O)/C=C\C(=O)O (stereo unspecified)	Bacterial Biotransformation	Compound NOT metabolized
CN1CCOC(c2ccccc2)c2ccccc2C1 (stereo unspecified) [NEFOPAM]	Bacterial Biotransformation	Compound NOT metabolized
CCN(CC)CCNC(=O)c1cc(Cl)c(N)cc1OC [METOCLOPRAMIDE]	Bacterial Biotransformation	Compound NOT metabolized
CN(C)CC(c1ccc(O)cc1)C1(O)CCCCC1.O=C(O)CCC(=O)O (stereo unspecified) [DESVENLAFAXINE SUCCINATE]	Bacterial Biotransformation	Compound NOT metabolized
CCN(CC)C(=O)/C(C#N)=C/c1cc(O)c(O)c([N+](=O)[O-])c1 [ENTACAPONE]	Bacterial Biotransformation	Compound metabolized
COC(=O)Nc1nc2ccc(C(=O)c3ccccc3)cc2[nH]1 [MEBENDAZOLE]	Bacterial Biotransformation	Compound metabolized
C=CCc1ccccc1OCC(O)CNC(C)C (stereo unspecified) [ALPRENOLOL]	Bacterial Biotransformation	Compound NOT metabolized
C[C@@H](CO)NC(=O)[C@@H]1C=C2c3cccc4[nH]cc(c34)C[C@H]2N(C)C1.O=C(O)/C=C\C(=O)O [ERGONOVINE MALEATE]	Bacterial Biotransformation	Compound metabolized
CC(CN1c2ccccc2Sc2ccccc21)N(C)C (stereo unspecified) [PROMETHAZINE]	Bacterial Biotransformation	Compound metabolized
CC(C(=O)O)c1ccc2c(c1)Cc1cccnc1O2 (stereo unspecified) [PRANOPROFEN]	Bacterial Biotransformation	Compound metabolized
CN1CCC(=C2c3ccccc3CCc3cccnc32)CC1.O=C(O)/C=C\C(=O)O.O=C(O)/C=C\C(=O)O [AZATADINE MALEATE]	Bacterial Biotransformation	Compound NOT metabolized
N#Cc1ccc(C(c2ccc(C#N)cc2)n2cncn2)cc1 [LETROZOLE]	Bacterial Biotransformation	Compound NOT metabolized
COC1=CC(=O)C[C@@H](C)[C@]12Oc1c(Cl)c(OC)cc(OC)c1C2=O [GRISEOFULVIN]	Bacterial Biotransformation	Compound NOT metabolized
Cc1cn([C@H]2C[C@H](N=[N+]=[N-])[C@@H](CO)O2)c(=O)[nH]c1=O [ZIDOVUDINE]	Bacterial Biotransformation	Compound metabolized
CC(=O)OCC(=O)[C@@]1(O)[C@@H](C)C[C@H]2[C@@H]3CCC4=CC(=O)C=C[C@]4(C)[C@@]3(F)[C@@H](O)C[C@@]21C [BETAMETHASONE ACETATE]	Bacterial Biotransformation	Compound metabolized
c1ccc([C@H]2CN3CCSC3=N2)cc1 [LEVAMISOLE]	Bacterial Biotransformation	Compound metabolized
Nc1nc2ccc(OC(F)(F)F)cc2s1 [RILUZOLE]	Bacterial Biotransformation	Compound NOT metabolized
NC12CC3CC(CC(C3)C1)C2 [AMANTADINE]	Bacterial Biotransformation	Compound NOT metabolized
COc1ccc2[nH]c([S+]([O-])Cc3ncc(C)c(OC)c3C)nc2c1 (stereo unspecified) [OMEPRAZOLE]	Bacterial Biotransformation	Compound metabolized
